biological target: GAL4 DBD (1-147)-CfEcR(DEF)/VP16AD-βRXREF-LmUSPEF (Choristoneura fumiferana, UniProt O77240); assay: cell-based; details: read-out: 27-63 assay EC50; CHO 27-63 stable cell line, luciferase reporter; average of two wells
measurement-kind: pEC50
// scale note: pEC50 = -log10(conc_M); give the bare number

Challenge: Give the measured pEC50 of Cc1cc(C)cc(C(=O)N(NC(=O)c2ccc(CC#N)cc2)C(C)(C)C)c1 [RG-100875] .
Response given: 5.05

Challenge: Give the measured pEC50 of COc1cc(C)cc(C(=O)N(NC(=O)c2cccc(OC)c2C)C(C)(C)C)c1 [RG-100767] .
Response given: 6.48

Challenge: Give the measured pEC50 of CCc1ccc(C(=O)NN(C(=O)c2cc(C)cc(C)c2)C(C)(C)C)cc1Cl [RG-101864] .
Response given: 6.46
